- Organism: Mus musculus
- METHOD: Ability to inhibit tumor necrosis factor-alpha (TNF-alpha) production in mouse macrophages stimulated with LPS
- Assay type: functional
Listed compounds paired with reported pIC50
// pIC50 here means minus log10 of the molar concentration (mol/L)

{"columns": ["SMILES TEXT", "VALUE"],
 "data": [
  ["CCCCC(=O)N1CCC(c2nc(N)nc3ccccc23)CC1", 5.52],
  ["COc1ccc(Cc2cc(C3CCN(C(=O)c4ccc5c(c4)OCO5)CC3)nc(N)n2)cc1", 6.22]
]}

Ask: Reported pIC50, compound COc1ccc(Cc2cc(C3CCN(C(=O)c4cccc([N+](=O)[O-])c4)CC3)nc(N)n2)cc1 : ____
Result: 6.10

Ask: Reported pIC50, compound COc1ccc(Cc2cc(C3CCN(C(=O)c4ccccc4OC)CC3)nc(N)n2)cc1 : ____
Result: 5.44

Ask: Reported pIC50, compound CCC(=O)N1CCC(c2cc(Cc3ccc(OC)cc3)nc(N)n2)CC1 : ____
Result: 5.31

Ask: Reported pIC50, compound Nc1nc(C2CCN(C(=O)C3CCCCC3)CC2)c2ccccc2n1 : ____
Result: 5.60

Ask: Reported pIC50, compound COc1ccc(Cc2cc(C3CCN(C(=O)c4ccc(OC)cc4)CC3)nc(N)n2)cc1 : ____
Result: 6.30

Ask: Reported pIC50, compound COc1ccc(Cc2cc(C3CCN(C(=O)Cc4ccc(OC)c(OC)c4)CC3)nc(N)n2)cc1 : ____
Result: 5.92

Ask: Reported pIC50, compound CCCCCC(=O)N1CCC(c2cc(Cc3ccc(OC)cc3)nc(N)n2)CC1 : ____
Result: 5.82
